# Tested target: T1, SARS-CoV-2 receptor binding domain (RBD), wild type, His-tagged (SARS-CoV-2, UniProt P0DTC2 319-541)
# T1 construct: domain: RBD; also called His-tagged RBD; BEI NR52309
# Experimental protocol: method and format not given
pKd: −log10 of the molar value.
If the reported pKd equals or exceeds 7, assign 1 (yes). If not, assign 0 (no).

Does mAb 160 (antibody, V domains shown, also called IgG 160; Antibody 160) VH: QVQLVQSGAEVKKPGASVKVSCKASGYTFTGHDMHWVRQAPGQGLEWMGIINPSGGSTSYAQKFQGRVTMTRDTSTSTVYMELSSLRSEDTAVYYCARANSLRYYYGMDVWGQGTMVTVSS VL: DIQMTQSPSSLSASVGDRVTITCRASQSVSSWLAWYQQKPGKAPKLLIYAASSLQSGVPSRFSGSGSGTDFTLTISSLQPEDFATYYCQQGYTTPYTFGQGTKLEIKR have a reported pKd of at least 7?
1 (yes)

Does mAb 56 (antibody, V domains shown, also called IgG 56; Antibody 56) VH: QVQLVQSGAEVKKPGASVKVSCKASGYTFTSYGISWVRQAPGQGLEWMGWISAYNGNTNYAQKLQGRVTMTRDTSTSTVYMELSSLRSEDTAVYYCARDIGPIDYWGQGTLVTVSS VL: DIQMTQSPSSLSASVGDRVTITCRASQGISSYLAWYQQKPGKAPKLLIYDASNLQSGVPSRFSGSGSGTDFTLTISSLQPEDFATYYCQQANSFPSTFGQGTKVEIKR have a reported pKd of at least 7?
1 (yes)

Does mAb 82 (antibody, V domains shown, also called IgG 82; Antibody 82) VH: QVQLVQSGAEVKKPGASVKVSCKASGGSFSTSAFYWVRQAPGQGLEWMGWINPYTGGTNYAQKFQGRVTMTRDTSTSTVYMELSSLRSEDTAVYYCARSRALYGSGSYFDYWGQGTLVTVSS VL: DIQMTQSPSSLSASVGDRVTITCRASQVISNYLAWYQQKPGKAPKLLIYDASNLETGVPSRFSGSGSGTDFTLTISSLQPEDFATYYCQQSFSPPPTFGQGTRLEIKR have a reported pKd of at least 7?
0 (no)

Does mAb 158 (antibody, V domains shown, also called IgG 158; Antibody 158) VH: QVQLVQSGAEVKKPGASVKVSCKASGYTFTGYYMHWVRQAPGQGLEWMGWINPLNGGTNFAPKFQGRVTMTRDTSTSTVYMELSSLRSEDTAVYYCARDPGGSYSNDAFDIWGQGTLVTVSS VL: DIQMTQSPSSLSASVGDRVTITCRASQSISRYLNWYQQKPGKAPKLLIYDASNLESGVPSRFSGSGSGTDFTLTISSLQPEDFATYYCQQANSFPLTFGGGTKVDIKR have a reported pKd of at least 7?
0 (no)
